Test system: 16HBE14o-
Conditions: human, 72 h
Description: Cytotoxicity against human 16HBE14o- after 72 hrs by MTT assay
measured attribute: CC50 (µM)
Provide only the numeric value, understood in µM.

molecule Cc1scnc1COc1cc(Cl)cc(-c2cc(-c3c[nH]c(=O)[nH]c3=O)cn(-c3cccnc3)c2=O)c1 , CC50 observed: 22

* * *

Test system: Vero C1008
Settings: chlorocebus sabaeus, vero c1008, 72 h
Description: Cytotoxicity against African green monkey Vero E6 cells after 72 hrs by MTT assay
measured attribute: CC50

Recorded result, Cn1cc(-c2cc(-c3cc(Cl)cc(OCc4scnc4C(F)(F)F)c3)c(=O)n(-c3cccnc3)c2)c(=O)[nH]c1=O , CC50: > 100 µM

According to the records, this compound Cn1cc(-c2cc(-c3cc(Cl)cc(OCC4CC4)c3)c(=O)n(-c3cccnc3)c2)c(=O)[nH]c1=O displays CC50 of 82 µM

Reported CC50 ( O=c1[nH]cc(-c2cc(-c3cc(Cl)cc(OCc4scnc4C(F)(F)F)c3)c(=O)n(-c3cccnc3)c2)c(=O)[nH]1 ) = > 100 µM

Consider O=c1[nH]cc(-c2cc(-c3cc(Cl)c(F)c(OCc4ccccc4Cl)c3)c(=O)n(-c3cccnc3)c2)c(=O)[nH]1 . Its measured CC50 is > 80 µM

According to the records, this compound Cn1cc(-c2cc(-c3cc(Cl)cc(OCCC(F)(F)F)c3)c(=O)n(-c3cccnc3)c2)c(=O)[nH]c1=O displays CC50 of > 100 µM

Reported CC50 for O=c1[nH]cc(-c2cc(-c3cc(Cl)cc(OCc4ocnc4C(F)(F)F)c3)c(=O)n(-c3cccnc3)c2)c(=O)[nH]1 was > 100 µM

Memo: Cc1scnc1COc1cc(Cl)cc(-c2cc(-c3c[nH]c(=O)[nH]c3=O)cn(-c3cccnc3)c2=O)c1 , reported CC50: > 100 µM

Value of CC50 reported for the compound Cn1cc(-c2cc(-c3cc(Cl)c(F)c(OCc4ccccc4Cl)c3)c(=O)n(-c3cccnc3)c2)c(=O)[nH]c1=O is > 32.5 µM
